tested_target: Glutathione reductase, mitochondrial (Homo sapiens, UniProt P00390)
Sequence (P00390 whole entry): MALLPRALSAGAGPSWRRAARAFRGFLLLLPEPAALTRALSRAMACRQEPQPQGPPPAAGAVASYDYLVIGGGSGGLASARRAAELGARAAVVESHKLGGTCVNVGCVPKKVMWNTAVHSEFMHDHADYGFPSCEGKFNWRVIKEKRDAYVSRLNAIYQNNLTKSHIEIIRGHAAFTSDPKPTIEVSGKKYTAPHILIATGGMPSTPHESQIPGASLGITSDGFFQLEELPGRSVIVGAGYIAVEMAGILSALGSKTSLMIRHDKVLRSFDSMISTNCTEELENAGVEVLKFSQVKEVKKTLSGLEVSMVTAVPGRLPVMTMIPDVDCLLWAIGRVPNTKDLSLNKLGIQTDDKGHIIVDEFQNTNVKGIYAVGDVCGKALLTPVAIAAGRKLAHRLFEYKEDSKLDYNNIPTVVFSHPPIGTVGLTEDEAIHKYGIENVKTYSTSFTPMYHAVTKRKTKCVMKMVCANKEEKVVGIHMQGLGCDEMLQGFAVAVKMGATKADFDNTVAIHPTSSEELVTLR
assay_explanation: Inhibition of human glutathione reductase in presence of 50 uM GSSG substrate

# test_smiles, tested_target, IC50
data = [
    ("C=CC(=O)/C=C/c1ccccc1Cl", "Glutathione reductase, mitochondrial (Homo sapiens, UniProt P00390)", "18.5 µM"),
]
